- Test Protocol: S6 kinase pathway phospho-S6 level changes – cell-based, A549, cytoblot, luminescence, serum-stimulated, primary screen (AID 1158);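 note: serum-stimulated A549 lung adenocarcinoma cells; signal is phosphorylated S6 detected by cytoblot immunostaining with HRP secondary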
- Condition Summary: 5 h, higher = more signal
Measurement Label: z-score
Output spec: single numeric token, no unit.

I would be grateful if you could share the reported z-score for `COCCOC(=O)N1C(=O)[C@@]2(c3cc(C#CCC(C(=O)OC)C(=O)OC)ccc31)[C@H](c1ccccc1OCCO)N1[C@H](c3ccccc3)[C@H](c3ccccc3)OC(=O)[C@H]1[C@@H]2C(=O)Nc1nc2ccccc2s1` .
3.72

Also check `O=c1cccc(-c2ccc3ccccc3c2)o1`
-0.38

Also check `C[N+](C)(C)CCCCNC(=O)[C@H]1C[C@H]2C(=O)N3CCC[C@H]3C(=O)N2[C@H]1c1ccc(O)cc1`
-0.0429

Also check CC(c1ccccc1)C(O)C1C=CC2C(=O)N(c3ccccc3)C(=O)C2N1Nc1ccccc1F (centres undefined)
0.0297

Origin of values: PubChem BioAssay
